target: Low molecular weight phosphotyrosine protein phosphatase (Homo sapiens) (UniProt P24666)
Sequence (P24666 whole entry, looked up): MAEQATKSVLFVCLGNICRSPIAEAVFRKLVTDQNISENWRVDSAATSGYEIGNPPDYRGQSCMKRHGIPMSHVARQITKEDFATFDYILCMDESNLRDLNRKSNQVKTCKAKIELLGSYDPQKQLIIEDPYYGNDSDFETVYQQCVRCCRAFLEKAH
recorded endpoint: IC50

Request: Identify the measured IC50 of COc1ccc(-c2cc(NCCCN3CCCCC3)c3ccccc3n2)cc1 for Low molecular weight phosphotyrosine protein phosphatase (Homo sapiens) (UniProt P24666).
Response: 1.68 µM
